# systemTested: AR protein in VCaP cells (Homo sapiens, UniProt P10275)
# Construct: endogenous in cells; host or cells: VCaP cells
# Sequence (P10275 whole entry): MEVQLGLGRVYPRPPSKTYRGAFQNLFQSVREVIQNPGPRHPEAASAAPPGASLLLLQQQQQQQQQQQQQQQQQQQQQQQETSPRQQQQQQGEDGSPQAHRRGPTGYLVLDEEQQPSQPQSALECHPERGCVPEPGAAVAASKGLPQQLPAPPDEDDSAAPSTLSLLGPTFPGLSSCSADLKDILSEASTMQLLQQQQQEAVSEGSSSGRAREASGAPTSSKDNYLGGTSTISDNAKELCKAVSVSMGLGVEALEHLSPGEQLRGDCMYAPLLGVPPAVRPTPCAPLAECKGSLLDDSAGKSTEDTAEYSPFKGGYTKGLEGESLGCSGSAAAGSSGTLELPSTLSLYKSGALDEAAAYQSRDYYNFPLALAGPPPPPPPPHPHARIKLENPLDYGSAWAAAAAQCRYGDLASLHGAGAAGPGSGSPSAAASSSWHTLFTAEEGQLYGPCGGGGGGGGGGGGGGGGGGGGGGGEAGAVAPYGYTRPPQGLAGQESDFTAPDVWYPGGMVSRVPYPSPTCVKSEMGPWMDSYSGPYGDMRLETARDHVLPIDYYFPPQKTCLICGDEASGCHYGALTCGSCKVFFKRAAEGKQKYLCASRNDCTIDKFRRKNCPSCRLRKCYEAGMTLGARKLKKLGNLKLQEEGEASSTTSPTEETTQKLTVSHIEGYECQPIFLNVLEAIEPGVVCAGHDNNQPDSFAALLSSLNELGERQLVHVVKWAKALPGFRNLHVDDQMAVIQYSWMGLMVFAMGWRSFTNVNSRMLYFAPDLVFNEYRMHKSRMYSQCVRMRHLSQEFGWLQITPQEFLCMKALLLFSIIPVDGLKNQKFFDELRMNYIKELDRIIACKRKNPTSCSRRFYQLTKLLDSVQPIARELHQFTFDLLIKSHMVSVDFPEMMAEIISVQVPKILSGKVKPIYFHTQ
# assayExplanation: VCAP AR Degradation Assay
# Type: cell-based
# testSettings: 24 h, AR ELISA, lowest measured AR level normalized to DMSO control
Counter-ions that a name gives are not always drawn.
measuredProperty: Y

CC1(C)C(=O)N(c2ccc(C#N)c(C(F)(F)F)c2)C(=S)N1[C@H]1CC[C@H](OCCCN2CCN(CC(=O)Nc3cccc(NC4CCC(=O)NC4=O)c3)[C@@H](C(F)(F)F)C2)CC1 (stereo partly drawn)    * (0<Y≤15%)
CC1(C)C(=O)N(c2cnc(C#N)c(C(F)(F)F)c2)C(=S)N1[C@H]1CC[C@H](OCCN2CCN(CC(=O)Nc3cccc(N[C@H]4CCC(=O)NC4=O)c3)[C@@H](C(F)(F)F)C2)CC1 [Cmpd 41, hydrochloride]    * (0<Y≤15%)
